These data points were gathered from patent US20160137639A1.

testSystem: mouse RORγ (Mus musculus)
Construct: mouse, NM_011281.2 and from Ile251 to Lys516; expressed in transfected cells; host or cells: CHO cells (transient co-transfection with pG5-Luc reporter)
Sequence (P51450 251-516): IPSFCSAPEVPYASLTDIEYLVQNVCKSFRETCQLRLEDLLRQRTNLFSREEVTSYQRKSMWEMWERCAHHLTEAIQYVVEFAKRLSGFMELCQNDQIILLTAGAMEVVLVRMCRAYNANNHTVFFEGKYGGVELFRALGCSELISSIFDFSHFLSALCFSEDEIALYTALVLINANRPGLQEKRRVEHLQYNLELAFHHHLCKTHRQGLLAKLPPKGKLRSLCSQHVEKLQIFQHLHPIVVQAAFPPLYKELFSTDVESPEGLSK
runDescription: Luciferase reporter gene assay of inhibitory effect against RORγ transcriptional activity (GAL4-mRORγ plasmid in CHO cells)
Assay type: cell-based
assaySetup: read-out: LUC EC50 (μM) mRORg
Assign EC50 to each entry below.

For orientation, consider the following solved cases.
Query: // EC50 lookup, key: CC(=O)N1C[C@H](C(=O)Nc2ccc(C)cc2C)[C@@H](c2nnc(CCCC(C)(C)C)n2C2CC2)C1 (racemic) [Example F-219]
Result: < 3 µM

Query: Could you tell me which EC50 is on file for CCn1c(CCC(=O)NCc2ccccc2C)nnc1CCC1CCCCC1 ?
Result: < 3 µM

Query: Quick one: EC50 for Cc1ccc(NC(=O)CCc2nnc([C@H]3C[C@H](CC(C)C)C3)n2C2CC2)c(C)c1 ?
Result: < 3 µM

Query: Could you tell me which EC50 is on file for Cc1ccc(NC(=O)CC(c2nnc([C@H]3C[C@@H](CC(C)C)C3)n2C2CC2)C2CNC2)c(C)c1 (mixture of isomers) ?
Result: > 3 µM

Query: Could you tell me which EC50 is on file for Cc1ccc(NC(=O)CCc2nnc([C@H]3C[C@@H](CC4CCCC4)C3)n2C2CC2)c(C)c1 ?
Result: < 3 µM

Query: # input compound: CC(=O)N1C[C@H](C(=O)Nc2ccc(C)cc2C)[C@@H](c2nnc(C3CC4(CCCCC4)C3)n2C2CC2)C1 (racemic) [Example F-452] ; wanted: its EC50
Result: < 3 µM

---
Query: Look at this compound and give its reported EC50. CC(C)CCc1nnc(CCC(=O)Nc2cc(F)cc(Cl)c2)n1C1CC1
Result: > 3 µM

###

testSystem: human RORγ (Homo sapiens)
Construct: human, NM_005060.3 and from Ser253 to Lys518; expressed in transfected cells; host or cells: CHO cells (transient co-transfection with pG5-Luc reporter)
runDescription: Luciferase reporter gene assay of inhibitory effect against RORγ transcriptional activity (GAL4-hRORγ plasmid in CHO cells)
Assay type: cell-based
assaySetup: read-out: LUC EC50 (μM) hRORg
reportedProperty: EC50

Query: Which EC50 reading was recorded for the compound COc1cc(C)ccc1CNC(=O)CCc1nnc(CCC2CCC(F)(F)CC2)n1C1CC1 ?
Result: < 3 µM

Quick batch: EC50 for everything below.
1. Cc1ccc(NC(=O)CCc2noc(CCC3CCCCC3)c2C2CC2)c(C)c1
2. CC(C)CCc1nnc(CCC(=O)NCc2ccc(Cl)cc2)n1C1CC1
3. COc1cc(C)c(C)cc1CNC(=O)CCc1nnc(CCC(C)C)n1C1CC1

Result:
1. < 3 µM
2. > 3 µM
3. > 3 µM

State recorded EC50 for all listed compounds.
1. CCn1c(CCC(=O)NCc2cccc3ccccc23)nnc1C1Cc2ccccc2C1
2. Cc1c(Cl)cccc1NC(=O)CCc1nnc(CCC(=O)O)n1C1CC1
3. CC(C)CCc1nnc(CCC(=O)NCc2cccc3[nH]ncc23)n1C1CC1
4. Cc1ccc(NC(=O)CCc2nnc(C(O)CCC(C)(C)C)n2C2CC2)c(C)c1 (racemic)
5. COC1CCC(CCc2nnc(CCC(=O)Nc3cccc(Cl)c3C)n2C2CC2)CC1 (centres unmarked)
6. COC(=O)N1C[C@H](C(=O)Nc2ccc(C)cc2C)[C@@H](c2nnc(CCCC(C)(C)C)n2C2CC2)C1 (racemic)
7. Cc1ccc(NC(=O)C[C@H](NC(=O)OCc2ccccc2)c2nnc(CCCC(C)(C)C)n2C2CC2)c(C)c1
8. Cc1ccc(NC(=O)CC(CC#N)c2nnc(CCCC(C)(C)C)n2C2CC2)c(C)c1 (racemic)

Result:
1. < 3 µM
2. > 3 µM
3. > 3 µM
4. > 3 µM
5. > 3 µM
6. < 3 µM
7. < 3 µM
8. < 3 µM

Value sought for every listed compound: EC50.
1. CC(=O)N1C[C@@H](C(=O)Nc2ccc(C)cc2C)[C@H](c2nnc(CCCC(C)(C)C)n2C2CC2)C1
2. COc1cc(C)ccc1CNC(=O)CCc1nnc(CCC2CCCCC2)n1C1CC1
3. CCn1c(CCC(=O)NCc2ccccc2)nnc1C1Cc2ccccc2C1
4. CC(=O)NCCCC(CC(=O)Nc1ccc(C)cc1C)c1nnc(CCCC(C)C)n1C1CC1 (racemic)

Result:
1: > 3 µM; 2: < 3 µM; 3: > 3 µM; 4: > 3 µM

Would you be so kind as to report EC50 for each listed record?
1. Cc1ccc(NC(=O)CC(CCO)c2nnc(C(F)(F)CCC(C)(C)C)n2C2CC2)c(C)c1 (racemic)
2. COc1cc(C)ccc1CNC(=O)CC(CCO)c1nnc(CCC(C)C)n1C1CC1 (racemic)
3. Cc1c(Cl)cccc1NC(=O)CCc1nnc(CC(=O)O)n1C1CC1
4. Cc1ccc(NC(=O)C[C@H](CCC(=O)O)c2noc(-c3cc(CC(C)(C)C)on3)c2C2CC2)c(F)c1
5. Cc1ccc(NC(=O)C[C@H](CCC(=O)O)c2noc(-c3cc(C4CCCC4)on3)c2C2CC2)c(Cl)c1
6. CNC(=O)C(C)(C)CCc1nnc(CCC(=O)Nc2cccc(Cl)c2C)n1C1CC1
7. Cc1ccc(NC(=O)CCc2nnc(CCC3CCCCC3)n2C2CCC2)c(C)c1

Result:
1. < 3 µM
2. > 3 µM
3. > 3 µM
4. < 3 µM
5. < 3 µM
6. > 3 µM
7. > 3 µM

###

For each entry below, report its EC50 value.
testSystem: human RORγ (Homo sapiens, UniProt P51449)
Construct: human, NM_005060.3 and from Ser253 to Lys518; expressed in transfected cells; host or cells: CHO cells (transient co-transfection with pG5-Luc reporter)
Sequence (P51449 253-518): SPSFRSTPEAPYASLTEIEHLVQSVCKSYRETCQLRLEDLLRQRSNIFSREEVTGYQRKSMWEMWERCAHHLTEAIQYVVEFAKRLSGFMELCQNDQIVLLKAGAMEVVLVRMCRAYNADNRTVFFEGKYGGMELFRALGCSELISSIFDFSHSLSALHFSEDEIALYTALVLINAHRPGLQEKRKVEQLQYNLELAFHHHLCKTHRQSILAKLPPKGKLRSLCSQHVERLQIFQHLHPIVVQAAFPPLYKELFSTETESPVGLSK
runDescription: Luciferase reporter gene assay of inhibitory effect against RORγ transcriptional activity (GAL4-hRORγ plasmid in CHO cells)
Assay type: cell-based
assaySetup: read-out: LUC EC50 (μM) hRORg

Below: 3 compounds and their reported EC50.
Query: Give the measured EC50 of Cc1c(F)cccc1CNC(=O)CCc1nnc(CCC(C)C)n1C1CC1 .
Result: > 3 µM

Query: Record request: EC50 value, item Cc1ccc(NC(=O)C[C@H](CCC(=O)O)c2onc(-c3cc(C(F)(F)C(C)(C)C)on3)c2C2CC2)c(Cl)c1
Result: < 3 µM

Query: Which EC50 is reported for this compound? CC(=O)N1CC[C@H](c2nnc(CCCC(C)(C)C)n2C2CC2)[C@@H](C(=O)Nc2ccc(C)cc2C)C1 (racemic)
Result: < 3 µM

Okay, next one:
Query: What value of EC50 has been recorded for this entry: Cc1ccc(NC(=O)CC(CCCN(C)C)c2nnc(CCCC(C)C)n2C2CC2)c(C)c1 (racemic)
Result: > 3 µM

###

testSystem: human RORγ (Homo sapiens)
Construct: human, NM_005060.3 and from Ser253 to Lys518; expressed in transfected cells; host or cells: CHO cells (transient co-transfection with pG5-Luc reporter)
runDescription: Luciferase reporter gene assay of inhibitory effect against RORγ transcriptional activity (GAL4-hRORγ plasmid in CHO cells)
Type: cell-based
assaySetup: read-out: LUC EC50 hRORg
reportedProperty: EC50

Reference set, count: 3
Query: # lookup: EC50 of Cc1ccc(NC(=O)CCc2noc([C@H]3C[C@@H](CC(C)C)C3)c2/C=C/C(=O)O)c(C)c1 [Example F-646]
Result: > 3 µM

Query: Return reported EC50; argument: Cc1ccc(NC(=O)CC(CC(=O)N2CC[C@H](O)C2)c2nnc([C@H]3C[C@@H](CC(C)C)C3)n2C2CC2)c(C)c1 (mixture of isomers) [Example F-503]
Result: > 3 µM

Query: Which EC50 reading was recorded for the molecule Cc1ccc(NC(=O)C[C@H](CC(C)(C)O)c2nnc([C@H]3C[C@@H](CC(C)C)C3)n2C2CC2)c(C)c1 [Example F-599] ?
Result: < 3 µM

For each listed entry, give its EC50.
1. Cc1ccc(NC(=O)C[C@H](CC(O)C(F)(F)F)c2nnc([C@H]3C[C@@H](CC(C)C)C3)n2C2CC2)c(C)c1 (single isomer, unassigned) [Example F-621]
2. Cc1ccc(NC(=O)[C@H]2CC(F)(F)C[C@@H]2c2nnc([C@H]3C[C@@H](CC(C)C)C3)n2C2CC2)c(C)c1 [Example F-571]
3. Cc1ccc(NC(=O)C[C@H](CCC(=O)O)c2nnc([C@H]3C[C@@H](CC(C)(C)C(C)C)C3)n2C2CC2)c(Cl)c1 [Example F-708]
4. CC(=O)c1ccc(NC(=O)C[C@H](CCC(=O)O)c2noc([C@H]3C[C@@H](CC(C)(C)CO)C3)c2C2CC2)c(Cl)c1 [Example F-731]
5. Cc1ccc(NC(=O)[C@H]2CN(S(=O)(=O)C(F)F)C[C@@H]2c2nnc([C@H]3C[C@@H](CC(C)(C)C)C3)n2C2CC2)c(C)c1 [Example F-550]
6. CC(C)(C)C(F)(F)c1cc(-c2onc([C@@H](CCC(=O)O)CC(=O)Nc3ccc(Cl)cc3F)c2C2CC2)no1 [Example E-77]
7. Cc1ccc(NC(=O)[C@@H](CC(=O)O)Cc2noc([C@H]3C[C@@H](CC(C)C)C3)c2C2CC2)c(C)c1 [Example F-668]

Result:
1: < 3 µM; 2: < 3 µM; 3: < 3 µM; 4: > 3 µM; 5: < 3 µM; 6: < 3 µM; 7: > 3 µM
